# TARGET: KRas-mediated phosphorylation of ERK in A549 cells (Homo sapiens, UniProt P01116, G12S)
# Construct: pERK HTRF read-out
# Sequence (P01116 1-188 isoform P01116-2 G12S): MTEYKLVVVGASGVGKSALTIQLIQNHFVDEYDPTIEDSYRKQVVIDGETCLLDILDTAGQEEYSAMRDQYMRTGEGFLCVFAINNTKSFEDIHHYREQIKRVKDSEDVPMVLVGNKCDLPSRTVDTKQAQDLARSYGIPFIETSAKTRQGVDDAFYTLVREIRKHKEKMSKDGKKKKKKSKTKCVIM
# TEST: Inhibition of KRas-mediated phosphorylation of ERK (HTRF), A549 cells
# Type: cell-based
# MEASUREMENT PARAMETERS: HTRF pERK, 3 h incubation
# IC50 per record follows
Reply with a number, then the unit it belongs to.

Here are 2 molecules together with their reported answers.
CCc1c(F)ccc2cc(O)cc(-c3ncc4c(NC[C@@H]5C[C@@H]5C(=O)n5ccc(C)n5)nc(OC[C@@]56CCCN5C[C@H](F)C6)nc4c3F)c12 ... 167 nM
CCc1c(F)ccc2cc(O)cc(-c3ncc4c(N5CCC(C(=O)n6ccc(C)n6)CC5)nc(OC[C@@]56CCCN5C/C(=C\F)C6)nc4c3F)c12 ... 85 nM

Consider the record given below.
Entry Cc1ccn(C(=O)CCCN(C)c2nc(OC[C@@]34CCCN3C[C@H](F)C4)nc3c(F)c(-c4ccc(F)c5sc(N)c(C#N)c45)c(Cl)cc23)n1 , IC50 reported as 10 nM

###

# TARGET: KRas G12C (Homo sapiens, UniProt P01116, G12C)
# Construct: Biotinylated KRas (corresponding to amino acids 1-169, produced at Accelegan Inc.); biotin (biotinylated); purchased Accelegan Inc
# Sequence (P01116 1-169 isoform P01116-2 G12C): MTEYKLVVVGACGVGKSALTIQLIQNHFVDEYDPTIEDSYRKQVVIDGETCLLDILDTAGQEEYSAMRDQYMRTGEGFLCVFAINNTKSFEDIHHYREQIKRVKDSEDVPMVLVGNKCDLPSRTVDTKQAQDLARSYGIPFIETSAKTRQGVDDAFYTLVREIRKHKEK
# TEST: KRas binding assay, TR-FRET displacement of Cy5 labelled tracer
# MEASUREMENT PARAMETERS: 60-minute incubation at room temperature, 1% DMSO, pH 7.5
PROPERTY NAME: log10(IC50) (log10 of the value in nM)
In plain terms, each number is the log10 of measured IC50 in nM.

// log10(IC50) value for CCc1c(F)ccc2cc(O)cc(-c3ncc4c(N5CCC(C)(C(=O)n6ccc(C)n6)C5)nc(OC[C@@]56CCCN5C[C@H](F)C6)nc4c3F)c12 (some centres unmarked) : 1.18

Note to self: log10(IC50) recorded for CCc1c(F)ccc2cc(O)cc(-c3c(F)cc4c(N5CCCC(C(=O)n6ccc(C)n6)CC5)nc(OC[C@@]56CCCN5C[C@H](F)C6)nc4c3F)c12 (some centres unmarked) was 3.05

Value of measured log10(IC50) for the entry CCc1c(F)ccc2cc(O)cc(N3CCc4c(nc(OC[C@@]56CCCN5C[C@H](F)C6)nc4N4CCCC(C(=O)n5cccn5)CC4)C3)c12 (some centres unmarked) : 1.75

Lab book: log10(IC50) of N#Cc1c(N)sc2c(F)ccc(-c3c(Cl)cc4c(N5CCC(C(=O)N6CCCC6)CC5)nc(OC[C@@]56CCCN5C[C@H](F)C6)nc4c3F)c12 noted as 1.11

Lookup result for CCc1c(F)ccc2cc(O)cc(-c3ncc4c(N5C[C@H](C(=O)n6ccc(C)n6)[C@@H](C)C5)nc(OC[C@@]56CCCN5C[C@H](F)C6)nc4c3F)c12 ; measured log10(IC50): 2.57

###

# TARGET: KRas-mediated phosphorylation of ERK in MKN1 cells (Homo sapiens, UniProt P01116)
# Construct: pERK HTRF read-out
# Sequence (P01116 1-188 isoform P01116-2): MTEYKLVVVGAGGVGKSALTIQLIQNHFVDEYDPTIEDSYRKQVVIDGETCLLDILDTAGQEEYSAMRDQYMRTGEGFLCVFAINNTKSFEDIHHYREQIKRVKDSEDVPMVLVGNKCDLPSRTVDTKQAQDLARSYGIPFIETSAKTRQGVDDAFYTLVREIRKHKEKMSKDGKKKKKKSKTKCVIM
# TEST: Inhibition of KRas-mediated phosphorylation of ERK (HTRF), MKN1 cells
# Type: cell-based
# MEASUREMENT PARAMETERS: MKN1 cells (KRas WT); HTRF pERK; 3 h incubation
PROPERTY NAME: IC50

Please review the following examples before continuing.
CCc1c(F)ccc2cc(O)cc(-c3ncc4c(N5CCC(C(=O)n6ccc(C)n6)C6CC65)nc(OC[C@@]56CCCN5C[C@H](F)C6)nc4c3F)c12 (stereo partly drawn) ... 2850 nM
CN(CCCC(=O)Nc1ccccn1)c1nc(OC[C@@]23CCCN2C[C@H](F)C3)nc2c(F)c(-c3ccc(F)c4sc(N)c(C#N)c34)c(Cl)cc12 ... 120 nM

Record CCc1c(F)ccc2cc(O)cc(-c3ncc4c(N5C[C@@H](C)N(C(=O)n6ccc(C)n6)[C@@H](C)C5)nc(OC[C@@]56CCCN5C[C@H](F)C6)nc4c3F)c12 has KRas-mediated phosphorylation of ERK in MKN1 cells (Homo sapiens, UniProt P01116) IC50 equal to 192 nM
